# ASSAY_NOTES: Cmax in healthy white human with SLCO1B1 521CC/CYP2C8*1/*3 combined genotype at 2 mg, po
# Format: ADME, organism-based
# Parameters: dose 2 mg, route oral
# PROTOCOL_CONDITIONS: in vivo
MEASURED_PARAMETER: Cmax (ng/mL)
Answers are plain numbers, in ng/mL.

Reported Cmax of CCOc1cc(CC(=O)N[C@@H](CC(C)C)c2ccccc2N2CCCCC2)ccc1C(=O)O [REPAGLINIDE] : 17.7

###

# ASSAY_NOTES: Tmax in healthy white human with CYP2C8*1/*3 genotype at 2 mg, po
# Type: ADME, organism-based
# PROTOCOL_CONDITIONS: in vivo
MEASURED_PARAMETER: Tmax (min)
Numbers only, in min.

Reported Tmax of CCOc1cc(CC(=O)N[C@@H](CC(C)C)c2ccccc2N2CCCCC2)ccc1C(=O)O [REPAGLINIDE] : 48

###

# ASSAY_NOTES: AUC (0 to infinity) in healthy white human with SLCO1B1 521CC/CYP2C8*3/*3 combined genotype at 2 mg, po
# Format: ADME, organism-based
# Parameters: dose 2 mg, route oral, time infinity
# PROTOCOL_CONDITIONS: plasma
MEASURED_PARAMETER: AUC(0-inf) (ng·h/mL)
Give bare numbers, in ng·h/mL.

Reported AUC(0-inf) of CCOc1cc(CC(=O)N[C@@H](CC(C)C)c2ccccc2N2CCCCC2)ccc1C(=O)O [REPAGLINIDE] : 95.8

###

# ASSAY_NOTES: AUC (0 to infinity) in healthy white human with SLCO1B1 521TC/CYP2C8*3/*3 combined genotype at 2 mg, po
# Assay type: ADME, organism-based
# Parameters: dose 2 mg, route oral, time infinity
# PROTOCOL_CONDITIONS: plasma
MEASURED_PARAMETER: AUC(0-inf) (ng·h/mL)
Numbers only, in ng·h/mL.

Reported AUC(0-inf) of CCOc1cc(CC(=O)N[C@@H](CC(C)C)c2ccccc2N2CCCCC2)ccc1C(=O)O [REPAGLINIDE] : 23.4

###

# ASSAY_NOTES: Tmax in healthy white human with CYP2C8*3/*3 genotype at 2 mg, po
# Type: ADME, organism-based
# PROTOCOL_CONDITIONS: in vivo
MEASURED_PARAMETER: Tmax (min)
Answers are plain numbers, in min.

Reported Tmax of CCOc1cc(CC(=O)N[C@@H](CC(C)C)c2ccccc2N2CCCCC2)ccc1C(=O)O [REPAGLINIDE] : 54

###

# ASSAY_NOTES: Terminal half life in healthy white human with CYP2C8*3/*3 genotype at 2 mg, po
# Type: ADME, organism-based
# PROTOCOL_CONDITIONS: in vivo, read-out: beta t1/2 (converted)
MEASURED_PARAMETER: half-life

Reported half-life of CCOc1cc(CC(=O)N[C@@H](CC(C)C)c2ccccc2N2CCCCC2)ccc1C(=O)O [REPAGLINIDE] : 1.3 h

###

# Test system: Homo sapiens
# ASSAY_NOTES: Mean change in insulin concentration in healthy white human plasma with SLCO1B1 521TC/CYP2C8*3/*3 combined genotype at 2 mg, po
# Type: ADME, organism-based
# PROTOCOL_CONDITIONS: in vivo
MEASURED_PARAMETER: Activity (mU/l)
Give bare numbers, in mU/l.

Reported Activity of CCOc1cc(CC(=O)N[C@@H](CC(C)C)c2ccccc2N2CCCCC2)ccc1C(=O)O [REPAGLINIDE] : 1.5

###

# ASSAY_NOTES: Oral clearance in healthy white human with CYP2C8*1/*1 genotype at 2 mg, po
# Format: ADME, organism-based
# PROTOCOL_CONDITIONS: in vivo
MEASURED_PARAMETER: CL/F (mL/min/kg)
Answers are plain numbers, in mL/min/kg.

Reported CL/F of CCOc1cc(CC(=O)N[C@@H](CC(C)C)c2ccccc2N2CCCCC2)ccc1C(=O)O [REPAGLINIDE] : 7.5

###

# ASSAY_NOTES: AUC (0 to infinity) in healthy white human with CYP2C8*3/*3 genotype at 2 mg, po
# Format: ADME, organism-based
# Parameters: dose 2 mg, route oral, time infinity
# PROTOCOL_CONDITIONS: plasma
MEASURED_PARAMETER: AUC(0-inf) (ng·h/mL)
Answers are plain numbers, in ng·h/mL.

Reported AUC(0-inf) of CCOc1cc(CC(=O)N[C@@H](CC(C)C)c2ccccc2N2CCCCC2)ccc1C(=O)O [REPAGLINIDE] : 72.4

###

# ASSAY_NOTES: Cmax in healthy white human with CYP2C8*1/*1 genotype at 2 mg, po
# Assay type: ADME, organism-based
# Parameters: dose 2 mg, route oral
# PROTOCOL_CONDITIONS: in vivo
MEASURED_PARAMETER: Cmax (ng/mL)
One number for each entry, in ng/mL.

Reported Cmax of CCOc1cc(CC(=O)N[C@@H](CC(C)C)c2ccccc2N2CCCCC2)ccc1C(=O)O [REPAGLINIDE] : 60.3

###

# ASSAY_NOTES: Cmax in healthy white human with SLCO1B1 521TT/CYP2C8*1/*3 combined genotype at 2 mg, po
# Type: ADME, organism-based
# Parameters: dose 2 mg, route oral
# PROTOCOL_CONDITIONS: in vivo
MEASURED_PARAMETER: Cmax (ng/mL)
Give bare numbers, in ng/mL.

Reported Cmax of CCOc1cc(CC(=O)N[C@@H](CC(C)C)c2ccccc2N2CCCCC2)ccc1C(=O)O [REPAGLINIDE] : 57

###

# ASSAY_NOTES: Cmax in healthy white human with SLCO1B1 521TT/CYP2C8*3/*3 combined genotype at 2 mg, po
# Assay type: ADME, organism-based
# Design: dose 2 mg, route oral
# PROTOCOL_CONDITIONS: in vivo
MEASURED_PARAMETER: Cmax (ng/mL)
One number for each entry, in ng/mL.

Reported Cmax of CCOc1cc(CC(=O)N[C@@H](CC(C)C)c2ccccc2N2CCCCC2)ccc1C(=O)O [REPAGLINIDE] : 36.6

###

# ASSAY_NOTES: Cmax in healthy white human with CYP2C8*3/*3 genotype at 2 mg, po
# Type: ADME, organism-based
# Design: dose 2 mg, route oral
# PROTOCOL_CONDITIONS: in vivo
MEASURED_PARAMETER: Cmax

Reported Cmax of CCOc1cc(CC(=O)N[C@@H](CC(C)C)c2ccccc2N2CCCCC2)ccc1C(=O)O [REPAGLINIDE] : 38.5 ng/mL

###

# ASSAY_NOTES: Oral clearance in healthy white human at 2 mg, po
# Type: ADME, organism-based
# PROTOCOL_CONDITIONS: in vivo
MEASURED_PARAMETER: CL/F (mL/min/kg)
Answers are plain numbers, in mL/min/kg.

Reported CL/F of CCOc1cc(CC(=O)N[C@@H](CC(C)C)c2ccccc2N2CCCCC2)ccc1C(=O)O [REPAGLINIDE] : 7.67

###

# ASSAY_NOTES: AUC (0 to infinity) in healthy white human with CYP2C8*1/*3 genotype at 2 mg, po
# Format: ADME, organism-based
# Design: dose 2 mg, time infinity, route oral
# PROTOCOL_CONDITIONS: plasma
MEASURED_PARAMETER: AUC(0-inf)
# do not omit the unit; it follows the number

Reported AUC(0-inf) of CCOc1cc(CC(=O)N[C@@H](CC(C)C)c2ccccc2N2CCCCC2)ccc1C(=O)O [REPAGLINIDE] : 97.2 ng·h/mL

###

# System: Homo sapiens
# ASSAY_NOTES: Mean change in insulin concentration in healthy white human plasma with SLCO1B1 521TT/CYP2C8*3/*3 combined genotype at 2 mg, po
# Type: ADME, organism-based
# PROTOCOL_CONDITIONS: in vivo
MEASURED_PARAMETER: Activity (mU/l)
Answers are plain numbers, in mU/l.

# value of Activity, Homo sapiens, item CCOc1cc(CC(=O)N[C@@H](CC(C)C)c2ccccc2N2CCCCC2)ccc1C(=O)O [REPAGLINIDE] = 1

###

# ASSAY_NOTES: Cmax in healthy white human with SLCO1B1 521CC/CYP2C8*3/*3 combined genotype at 2 mg, po
# Format: ADME, organism-based
# Parameters: dose 2 mg, route oral
# PROTOCOL_CONDITIONS: in vivo
MEASURED_PARAMETER: Cmax (ng/mL)
One number for each entry, in ng/mL.

Reported Cmax of CCOc1cc(CC(=O)N[C@@H](CC(C)C)c2ccccc2N2CCCCC2)ccc1C(=O)O [REPAGLINIDE] : 67.9

###

# ASSAY_NOTES: Cmax in healthy white human at 2 mg, po
# Type: ADME, organism-based
# Set-up: dose 2 mg, route oral
# PROTOCOL_CONDITIONS: in vivo
MEASURED_PARAMETER: Cmax

Reported Cmax of CCOc1cc(CC(=O)N[C@@H](CC(C)C)c2ccccc2N2CCCCC2)ccc1C(=O)O [REPAGLINIDE] : 52.8 ng/mL

Every entry's value here was drawn from ChEMBL document CHEMBL3526119.
